system: RS4;11; assay: CellTiter-Glo cell growth inhibition, RS4;11; type: cell-based; details: Homo sapiens, RS4-11, Table 5, read-out: IC50 (nM) RS4, 11
Each item that follows carries a reported IC50.
Give your result in nM as a bare value.

# molecule, IC50 [nM]
rows = [
    ("Cc1nnc2n1-c1sc(C#Cc3cnn(CCCCCc4cccc5c4CN(C4CCC(=O)NC4=O)C5=O)c3)c(Cc3ccccc3)c1CO[C@H]2C (some centres unmarked)", 0.8),
]

Q. // lookup IC50 for Cc1nnc2n1-c1sc(C#Cc3cnn(CCCC#Cc4cccc5c4CN(C4CCC(=O)NC4=O)C5=O)c3)c(Cc3ccccc3)c1CO[C@H]2C (some centres unmarked)
A. 0.004

* * *

Each item that follows carries a reported IC50.
tested on: MDA-MB-453; experiment: WST-8 cell growth inhibition assay, MDA-MB-453; type: cell-based; conditions: Homo sapiens, WST-8, Table 6
Give your result in nM as a bare value.

# molecule, IC50 / nM
data = [
    ("Cc1nnc2n1-c1sc(C#Cc3cnn(CCCC#Cc4cccc5c4CN(C4CCC(=O)NC4=O)C5=O)c3)c(Cc3ccccc3)c1CO[C@H]2C (some centres unmarked) [Cpd. No. 18]", 0.25),
]

Q. // lookup IC50 for Cc1nnc2n1-c1sc(C#Cc3cnn(CCCCNc4cccc5c4C(=O)N(C4CCC(=O)NC4=O)C5=O)c3)c(Cc3ccccc3)c1CO[C@H]2C (some centres unmarked) [Cpd. No. 7]
A. 1.02

* * *

system: AML3; experiment: CellTiter-Glo cell viability, AML3 leukemia cell line; type: cell-based; settings: Table 5
Each item that follows carries a reported IC50.
Give your result in nM as a bare value.

# molecule, target-system, IC50 (nM)
measured = [
    ("Cc1nnc2n1-c1sc(C#Cc3cnn(CCCC#Cc4cccc5c4CN(C4CCC(=O)NC4=O)C5=O)c3)c(Cc3ccccc3)c1CO[C@H]2C (some centres unmarked) [Cpd. No. 18]", "AML3", 0.03),
]

The record that follows has no IC50 shown yet.
Q. // lookup IC50 for Cc1nnc2n1-c1sc(C#Cc3cnn(CCCCCc4cccc5c4CN(C4CCC(=O)NC4=O)C5=O)c3)c(Cc3ccccc3)c1CO[C@H]2C (some centres unmarked) [Cpd. No. 19]
A. 2.44

* * *

Each item that follows carries a reported IC50.
tested on: MDA-MB-231; assay: WST-8 cell growth inhibition assay, MDA-MB-231; assay type: cell-based; details: Homo sapiens, WST-8, Table 6
# do not omit the unit; it follows the number

# compound, IC50
measured = [
    ("Cc1nnc2n1-c1sc(C#Cc3cnn(CCCCNc4cccc5c4C(=O)N(C4CCC(=O)NC4=O)C5=O)c3)c(Cc3ccccc3)c1CO[C@H]2C (some centres unmarked)", "1.2 nM"),
]

The record that follows has no IC50 shown yet.
Q. // lookup IC50 for Cc1nnc2n1-c1sc(C#Cc3cnn(CCCC#Cc4cccc5c4CN(C4CCC(=O)NC4=O)C5=O)c3)c(Cc3ccccc3)c1CO[C@H]2C (some centres unmarked)
A. 0.76 nM

* * *

Each item that follows carries a reported pIC50.
system: MDA-MB-231; experiment: CellTiter-Glo cell growth inhibition, MDA-MB-231; assay type: cell-based; settings: Homo sapiens, MDA-MB-231, 96 h, 4 days, Table 4
Hey, just a heads up that pIC50 is the negative log base 10 of the concentration in molar.

Q. // lookup pIC50 for Cc1nnc2n1-c1sc(C#CCOCCOCCOCCOCCNc3cccc4c3C(=O)N(C3CCC(=O)NC3=O)C4=O)c(Cc3ccccc3)c1CO[C@H]2C (stereo partly shown)
A. 8.21

Q. // lookup pIC50 for Cc1nnc2n1-c1sc(C#CCOCCNc3cccc4c3C(=O)N(C3CCC(=O)NC3=O)C4=O)c(Cc3ccccc3)c1CO[C@H]2C (stereo partly shown)
A. 5.77

Q. // lookup pIC50 for Cc1nnc2n1-c1sc(C#Cc3cnn(CCCC#Cc4cccc5c4C(=O)N(C4CCC(=O)NC4=O)C5=O)c3)c(Cc3ccccc3)c1COC2 (stereo not shown)
A. 8.26

Q. // lookup pIC50 for Cc1nnc2n1-c1sc(C#Cc3cnn(CCCCNc4cccc5c4C(=O)N(C4CCC(=O)NC4=O)C5=O)c3)c(Cc3ccccc3)c1COC2 (stereo not shown)
A. 9.54

Q. // lookup pIC50 for Cc1nnc2n1-c1sc(C#Cc3cnn(CCCCCc4cccc5c4CN(C4CCC(=O)NC4=O)C5=O)c3)c(Cc3ccccc3)c1COC2 (stereo not shown)
A. 9.48

Q. // lookup pIC50 for Cc1nnc2n1-c1sc(C#CCOCCOCCOc3cccc4c3C(=O)N(C3CCC(=O)NC3=O)C4=O)c(Cc3ccccc3)c1CO[C@H]2C (stereo partly shown)
A. 6.65

Q. // lookup pIC50 for Cc1nnc2n1-c1sc(C#Cc3cnn(CCCCNc4cccc5c4CN(C4CCC(=O)NC4=O)C5=O)c3)c(Cc3ccccc3)c1CO[C@H]2C (stereo partly shown)
A. 8.64
